Source listed as ChEMBL document CHEMBL5325439.

So I've got a bunch of molecules here, and I need their microsomal CLint at 0.5 µM values.
Test method notes: Microsomal stability in human liver microsomes assessed as clearance at 0.5 uM incubated for 30 mins
Type: ADME, Microsome
Condition set: read-out: CLH
Numbers only, in µL/min/mg.

NC(=O)c1nc(-c2cccc(O)c2)nc2c1[nH]c(=O)n2C1CCN(Cc2ccccc2)C1 (configuration not stated)    70

Requested read-out: microsomal CLint at 0.5 µM. Entry: CC(Cc1ccc(Cl)c(Cl)c1)n1c(=O)[nH]c2c(C(N)=O)nc(-c3cccc(O)c3)nc21 (configuration not stated) 19

====

Target entity: Phosphatidylinositol 4,5-bisphosphate 3-kinase catalytic subunit delta isoform (Homo sapiens, UniProt O00329)
Sequence (O00329 whole entry, canonical isoform): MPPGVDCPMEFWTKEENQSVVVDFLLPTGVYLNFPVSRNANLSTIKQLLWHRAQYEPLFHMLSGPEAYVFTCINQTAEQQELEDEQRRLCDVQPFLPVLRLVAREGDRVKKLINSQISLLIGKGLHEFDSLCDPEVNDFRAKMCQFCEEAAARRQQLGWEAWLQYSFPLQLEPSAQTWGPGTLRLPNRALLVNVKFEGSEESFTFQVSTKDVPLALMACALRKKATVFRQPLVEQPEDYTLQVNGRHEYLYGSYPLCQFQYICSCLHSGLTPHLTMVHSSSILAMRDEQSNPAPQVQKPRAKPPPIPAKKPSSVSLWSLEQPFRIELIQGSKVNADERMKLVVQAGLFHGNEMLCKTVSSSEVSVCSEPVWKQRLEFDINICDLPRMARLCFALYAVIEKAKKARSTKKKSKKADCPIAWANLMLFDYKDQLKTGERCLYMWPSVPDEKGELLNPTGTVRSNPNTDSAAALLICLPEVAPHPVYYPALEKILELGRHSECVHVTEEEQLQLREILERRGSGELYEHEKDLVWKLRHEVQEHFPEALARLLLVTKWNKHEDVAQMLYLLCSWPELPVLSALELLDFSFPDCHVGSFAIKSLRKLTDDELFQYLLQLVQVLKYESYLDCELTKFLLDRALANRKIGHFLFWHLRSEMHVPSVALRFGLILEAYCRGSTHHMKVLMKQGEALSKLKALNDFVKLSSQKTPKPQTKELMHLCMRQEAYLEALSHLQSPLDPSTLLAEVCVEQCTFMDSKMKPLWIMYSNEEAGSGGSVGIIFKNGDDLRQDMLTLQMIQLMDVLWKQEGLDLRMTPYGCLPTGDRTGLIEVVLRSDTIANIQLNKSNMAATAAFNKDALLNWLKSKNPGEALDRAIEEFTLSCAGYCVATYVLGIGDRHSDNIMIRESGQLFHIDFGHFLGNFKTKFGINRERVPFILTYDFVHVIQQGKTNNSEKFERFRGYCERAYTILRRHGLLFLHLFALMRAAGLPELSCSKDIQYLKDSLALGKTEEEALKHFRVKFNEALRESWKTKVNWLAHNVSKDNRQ
Test method notes: Inhibition of recombinant human PI3Kdelta using l-a-phosphatidylinositol sodium salt and l-a-phosphatidyl-L-serine as substrate incubated for 60 mins in presence of ATP by ADP-glo kinase assay
Parameter measured: pKi
Answers are plain numbers, as −log10 of the molar value.

Known pKi results, listed for orientation:
NC(=O)c1nc(-c2cccc(O)c2)nc2c1[nH]c(=O)n2C1CCN(Cc2ccccc2)C1 (stereo not drawn)    8.30
CC(Cc1ccc(Cl)c(Cl)c1)n1c(=O)[nH]c2c(C(N)=O)nc(-c3cccc(O)c3)nc21 (stereo not drawn)    8.50
NC(=O)c1nc(-c2cccc3[nH]ncc23)nc2c1[nH]c(=O)n2CCc1ccc(Cl)c(Cl)c1    6.90

Give one value of pKi per listed compound.
1. NC(=O)c1nc(-c2cccc(O)c2)nc2c1[nH]c(=O)n2CC1CCOC1 (stereo not drawn)
2. NC(=O)c1nc(-c2cccc(O)c2)nc2c1[nH]c(=O)n2C1CC1c1ccccc1 (stereo not drawn)

1. 7.40
2. 7.20

Requested read-out: pKi. Entry: NC(=O)c1nc(-c2cccc(O)c2)nc2c1[nH]c(=O)n2-c1ccc(N2CCOCC2)cc1 7.30

====

Test method notes: Kinetic solubility of compound in PBS at pH 7.4 by HPLC analysis
Assay type: physicochemical
Condition set: PBS, read-out: Kinetic_solubility
Label condition met for high-side solubility kinetic (at or above 200 µM) and condition not met for low-side solubility kinetic (below it).

Cc1ccc(O)cc1-c1nc(C(N)=O)c2[nH]c(=O)n(CCc3ccc(Cl)c(Cl)c3)c2n1    condition met
NC(=O)c1nc(-c2cccc(O)c2)nc2c1[nH]c(=O)n2CCc1cccs1    condition met
NC(=O)c1nc(-c2cccc(O)c2)nc2c1[nH]c(=O)n2CCc1ccc(Cl)c(Cl)c1    condition not met

Check this molecule for solubility kinetic at or above 200 µM: NC(=O)c1nc(-c2cccc(O)c2)nc2c1[nH]c(=O)n2C1CCN(Cc2ccccc2)C1 (stereo not given) condition not met

Check this molecule for solubility kinetic at or above 200 µM: CC(Cc1ccc(Cl)c(Cl)c1)n1c(=O)[nH]c2c(C(N)=O)nc(-c3cccc(O)c3)nc21 (stereo not given) condition met
